Molecular target: T1, murine CD38 on transiently transfected Expi293 cells (Origene MC208001) (murine, UniProt P56528 1-304)
T1 construct: whole, on cells; also called Murine (FACs)
T1 sequence (looked up): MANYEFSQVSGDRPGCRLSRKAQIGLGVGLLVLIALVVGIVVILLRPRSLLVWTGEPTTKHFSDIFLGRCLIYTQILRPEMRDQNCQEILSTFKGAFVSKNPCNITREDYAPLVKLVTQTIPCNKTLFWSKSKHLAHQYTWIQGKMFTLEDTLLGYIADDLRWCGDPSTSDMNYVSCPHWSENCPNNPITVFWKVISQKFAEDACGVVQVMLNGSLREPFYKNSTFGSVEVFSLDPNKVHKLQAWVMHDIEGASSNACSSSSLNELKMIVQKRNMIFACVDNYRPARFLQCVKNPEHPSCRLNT
Assay: flow cytometry, transfected Expi293 cells;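 note: antibody binding to Expi293 cells transiently expressing human or murine CD38, antibodies applied at 10 ug/ml for 60 min on ice, read by flow cytometry as percent gated cells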
Listed below: FACs 10 ug/ml (percent gated) values for each entry.

binder	FACs 10 ug/ml (percent gated), %
40596p1.H7 (scFv, V domains shown, tested as scFv-Fc supernatant) VH: EVQLLESGGGLVQPGGSLRLSCAASGFDFSTYAMTWVRQAPGKGLEWVAGNGWSGSFTYYADSVKGRFTVSRDNSKNTLYLQMNSLRAEDTAVYYCTRNPGFGEMDVWGQGTTVTVSS VL: EIVLTQSPGTLRLSPGERATLSCRASQTVGTTLAWYQQKPGQAPRLLIHGASTRATDIPDRFSGSGSGTEFTLTISSLQSEDFADYYCQQYKSWPPLTFGGGTKVEIK	62.8
40769p1.1.B10 (scFv, V domains shown, tested as scFv-Fc supernatant) VH: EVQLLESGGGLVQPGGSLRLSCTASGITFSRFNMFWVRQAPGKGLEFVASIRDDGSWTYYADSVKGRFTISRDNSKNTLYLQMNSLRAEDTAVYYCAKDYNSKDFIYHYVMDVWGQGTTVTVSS VL: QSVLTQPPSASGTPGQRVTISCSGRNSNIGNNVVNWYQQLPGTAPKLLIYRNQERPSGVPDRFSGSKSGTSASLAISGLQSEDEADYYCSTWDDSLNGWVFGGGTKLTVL	0.38
40596p1.G10 (scFv, V domains shown, tested as scFv-Fc supernatant) VH: EVQLLESGGGLVQPGGSLRLSCAAPGFDFSKNAMSWVRQAPGKGLEYVAGSGWSGSFIFYADSVKGRFTVSRDNSENTLYLQMSSLRAEDTAVYYCAKNPGFGEMDVWGQGTTVTVSS VL: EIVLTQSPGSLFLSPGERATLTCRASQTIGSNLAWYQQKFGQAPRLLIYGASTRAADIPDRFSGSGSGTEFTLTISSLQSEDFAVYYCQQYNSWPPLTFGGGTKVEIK	59
40617p1.2.A3 (scFv, V domains shown, tested as scFv-Fc supernatant) VH: EVQLLESGGGLVQPGGSLRLSCAASGFTFSNYWMTWVRQAPGKGLEWVSAISSYGGNYIYYADSVKGRFTISRDNSKDTLYLQMNSLRAEDTAVYYCAKDWDDGMDVWGQGTTVTVSS VL: EIVMTQSPAVLSVSPGERATLSCRASQSVNSKLAWYQQKPGQAPRLLIYGASTRAAGIPDRFSGSGSGTDFTLTISSPQSEDFAVYYCQHYYDLPPYSFGGGTKVEIK	69.4
40566p1.B11 (scFv, V domains shown, tested as scFv-Fc supernatant) VH: DVQLVESGGGLVRPGESLRLSCAASGFTFDNYDMTWVRQAPGEGLEWVSFISSRGTFTYYTDSVKGRFTISRDNSKNTLYLQMNSLRAEDTAIYYCAKDSGEYYFFDYWGLGTLVTVSS VL: EIVMTQSPATLSVSPGERATFSCRASQSVNSKLAWYQQKPGQAPRLLIYGASRRATGIPDRFSESGSGTEFTLTISSLQSEDFAVYYCQQYHDWPPLTFGGGTKVEIK	49.9
40596p1.D2 (scFv, V domains shown, tested as scFv-Fc supernatant) VH: EVQLLESGGGLVQPGGSLRLSCAASGFDFSKNAMSWVRQAPGKGLEYVAGSGWSGSFIFYADSVKGRSTVSRDNSENTLYLQMSSLRAEDTAVYYCAKNPGFGEMDVWGQGTTVTVSS VL: ELVLTQSPGSLFLSPGERATLTCRASQTIGSNLAWYQQKFGQAPRLLIYGASTRAADIPDRFSGSGSGTEFTLTISSLQSEDFAVYYCQQYNSWPPLTFGGGTKVEIK	61
40566p1.C9 (scFv, V domains shown, tested as scFv-Fc supernatant) VH: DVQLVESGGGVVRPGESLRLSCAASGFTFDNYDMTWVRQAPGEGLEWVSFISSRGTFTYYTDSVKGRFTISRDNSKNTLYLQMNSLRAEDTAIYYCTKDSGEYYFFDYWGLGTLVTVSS VL: ETVMTQSPATLSVSPGERATFSCRASQSVNSKLAWYQQKPGQAPRLLIYDASRRATGIPDRFSGSGSGTEFTLTISSLQSEDFAVYFCQQYYDWPPLTFGGGTKVEIK	76.9
40769p1.1.B8 (scFv, V domains shown, tested as scFv-Fc supernatant) VH: EVQLLESGGGLVQPGGSLRLSCAASGFTFEDYAMSWVRQAPGKGLEWVSVISSKGGSTSNADSVKGRFTISRDNSKNTLYLQMNSLRAEDTAVYYCAKGMERQYYSYNAMDVWGQGTTVTVSS VL: QSVLTQPPSASGTPGQRVTISCSGSNSNIDVDYVYWYQQLPGTAPRLLIYKDDQRPSGVPDRFSGSKSGTSASLAISGLQSEDEADYYCATWDDNLNSWLFGGGTKLTVL	0.04
40566p1.C11 (scFv, V domains shown, tested as scFv-Fc supernatant) VH: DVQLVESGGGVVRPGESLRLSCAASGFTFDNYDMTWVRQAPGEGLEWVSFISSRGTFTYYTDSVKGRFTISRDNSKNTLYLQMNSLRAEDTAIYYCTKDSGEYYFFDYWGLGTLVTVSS VL: EIVLTQSPGTLSLSPGERATLSCRASQTVGSKLAWYQQKPGQAPRLLIFSASSRATGIPARFSGSGSGTEFTLTISSLQSEDFAVYYCQQYYDWPPLTFGGGTKVEIK	64.5
40566p1.F8 (scFv, V domains shown, tested as scFv-Fc supernatant) VH: DVQLVESGGGVVRPGESLRLSCAASGFTFDNYDMTWVRQAPGEGLEWVSFISSRGTFAYYTDSVKGRFTISRDNSKNTLYLQMNSLRAEDTAIYYCTKDSGEYYFFDYWGLGTLVTVSS VL: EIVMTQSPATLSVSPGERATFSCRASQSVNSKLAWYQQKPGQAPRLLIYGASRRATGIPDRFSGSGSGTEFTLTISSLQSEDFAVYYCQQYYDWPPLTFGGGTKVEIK	72.1
